STUDY SYSTEM: T1, Pig ASGR-1 (pig)
T1 construct: Expressed on HEK 293 cells or as membrane prep on beads; cDNA GenBank NM_001244458
T1 chain: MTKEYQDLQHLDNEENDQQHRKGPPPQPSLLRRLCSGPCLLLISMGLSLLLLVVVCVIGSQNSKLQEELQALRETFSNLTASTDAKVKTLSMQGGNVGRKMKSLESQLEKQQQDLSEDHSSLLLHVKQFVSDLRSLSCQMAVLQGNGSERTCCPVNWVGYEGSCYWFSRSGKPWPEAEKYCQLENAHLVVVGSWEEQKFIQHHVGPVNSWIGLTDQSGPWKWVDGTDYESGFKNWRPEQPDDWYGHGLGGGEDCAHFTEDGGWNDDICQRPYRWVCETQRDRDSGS
EXPERIMENT: FACS on transfected HEK 293 cells or membrane preps on beads; Y = signal at least 2x irrelevant IgG

| BINDER | binding result |
| --- | --- |
| 176H4 (antibody, V domains shown, Tested as hybridoma supernatant at normalized concentration) VH: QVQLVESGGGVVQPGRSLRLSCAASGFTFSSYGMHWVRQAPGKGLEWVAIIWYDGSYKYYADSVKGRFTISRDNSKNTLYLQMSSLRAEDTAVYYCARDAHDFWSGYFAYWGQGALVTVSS VL: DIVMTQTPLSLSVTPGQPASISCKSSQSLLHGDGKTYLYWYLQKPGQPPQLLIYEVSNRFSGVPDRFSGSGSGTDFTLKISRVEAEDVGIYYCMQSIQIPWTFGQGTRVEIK | binds |
| 56E5 (antibody, V domains shown, Tested as hybridoma supernatant at normalized concentration) VH: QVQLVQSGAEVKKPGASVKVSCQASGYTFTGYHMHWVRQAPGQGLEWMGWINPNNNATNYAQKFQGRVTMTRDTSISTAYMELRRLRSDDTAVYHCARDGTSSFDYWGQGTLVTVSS VL: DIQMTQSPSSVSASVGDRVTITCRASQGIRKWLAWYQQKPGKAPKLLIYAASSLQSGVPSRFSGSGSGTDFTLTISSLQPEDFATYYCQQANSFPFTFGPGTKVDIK | binds |
| 197G3 (antibody, V domains shown, Tested as hybridoma supernatant at normalized concentration) VH: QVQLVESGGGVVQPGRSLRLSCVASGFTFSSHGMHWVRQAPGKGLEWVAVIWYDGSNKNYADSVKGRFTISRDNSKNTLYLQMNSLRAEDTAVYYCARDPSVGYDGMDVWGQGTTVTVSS VL: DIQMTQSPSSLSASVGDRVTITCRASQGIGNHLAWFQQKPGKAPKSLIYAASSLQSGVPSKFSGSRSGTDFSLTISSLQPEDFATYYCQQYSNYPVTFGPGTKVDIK | binds |
